Field: ATP generation. Provide a value for each of the compounds that follow.
Tested on: Panc-2 cells
Experiment description: ATP assay (cell titer Glo2.0), ATP generation in panc-2 cells
Format: cell-based
Condition set: 40 μM, 1 hour treatment
Please give a number only; it is taken to be in %.

**Query** Quick one: ATP generation for O=C(CBr)[13C](=O)O [Molecule 1] ?
**Result** 57

**Query** Which value of ATP generation has been reported for [2H]C([2H])(Br)C(=O)C(=O)O [Molecule 4] in the records?
**Result** 91

**Query** Entry O=[13C](O)[13C](=O)[13CH2]Br [Molecule 6] : reported ATP generation = ?
**Result** 73

**Query** Name the recorded ATP generation for O=C(O)C(=O)CBr [Molecule 0, 3-Bromopyruvate, reference compound] .
**Result** 80

**Query** Would you mind telling me what ATP generation value was observed for O=C(O)[13C](=O)CBr [Molecule 2] ?
**Result** 83

**Query** Consider the compound shown here: O=C(O)C(=O)CBr [Molecule 7, 3-Bromopyruvate, reference compound] What is its recorded ATP generation?
**Result** 79
